B1: tRNA (parent)
chain: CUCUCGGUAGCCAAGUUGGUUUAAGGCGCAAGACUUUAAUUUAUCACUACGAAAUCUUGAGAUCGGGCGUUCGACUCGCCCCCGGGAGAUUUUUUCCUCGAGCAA

# Variants of: B1
# TEST_SUMMARY: nonsense suppression (GFP-seq) (ratio to wild type); higher = more function; SUP4oc tRNA, yeast GFP reporter sort-seq
Fewer inactive variants are shown than the library holds.
Listed here: items and their measured nonsense suppression.
API note: the answer field is a bare number with no unit suffix.

MUTANT_ID: A24C A87U
nonsense suppression: 0.0833
//
MUTANT_ID: C3U G61A
nonsense suppression: 0.198
//
MUTANT_ID: G73U C81U
nonsense suppression: 0.0263
//
MUTANT_ID: U55C G73A
nonsense suppression: 0.0331
//
MUTANT_ID: U4G A87C
nonsense suppression: 0.0794

Returns the measured nonsense suppression for the input variant. Input: U16G U63A
1.09

Recorded nonsense suppression of U22G G85U , please.
0.796
